Tested on: Bacillus cereus
assayText: Antimicrobial activity against Bacillus cereus MTCC 8372 after 24 hrs by microdilution method
Format: functional
testSettings: MTCC 8372, 24 h
recordedEndpoint: MBC (µg/mL)
Answer in µg/mL, number only, no unit symbol.

# smilesRecord, targetOrSystem, MBC, µg/mL
measured = [
    ("Cc1c(-c2nnc(-c3ccccc3)o2)c(-c2ccccc2)nn1-c1ccccc1", "Bacillus cereus", 230),
]

Record summary for Cc1c(-c2nnc(-c3ccccc3)o2)c(-c2ccc([N+](=O)[O-])cc2)nn1-c1ccccc1 : reported MBC = 150

The reported MBC of the compound COc1cc(-c2nn(-c3ccccc3)c(C)c2-c2nnc(-c3ccccc3)o2)cc(OC)c1OC was 160

The compound listed as Cc1c(-c2nnc(-c3ccccc3)o2)c(-c2ccc(Cl)cc2)nn1-c1ccccc1 has a reported MBC of 240

Value of MBC reported for the compound COc1ccc(-c2nnc(-c3c(-c4ccccc4)nn(-c4ccccc4)c3C)o2)cc1 is 220

GET /value?item= Cc1c(C(=O)NNC(=O)c2ccccc2)c(-c2ccccc2)nn1-c1ccccc1 &field=MBC returns 180

Query Cc1c(-c2nnc(-c3ccc(Cl)cc3)o2)c(-c2ccc(Cl)cc2)nn1-c1ccccc1 yields MBC of 260

Notebook: COc1ccc(-c2nn(-c3ccccc3)c(C)c2-c2nnc(-c3ccccc3)o2)cc1OC , MBC read as 230

The compound CN(C)[C@@H]1C(O)=C(C(N)=O)C(=O)[C@@]2(O)C(O)=C3C(=O)c4c(O)cccc4[C@@](C)(O)[C@H]3C[C@@H]12 showed MBC equal to 120
